Where these numbers come from: patent US7365231B2

- Test system: EKVX
- procedureSummary: NCI panel growth inhibition, sulforhodamine B
- Format: cell-based
- conditionSummary: Homo sapiens, NSCLC, drug for last 48 h of 72 h
List of IC50 values.
Enter your answer as a number in µM; do not include the unit.

>>> print(df.to_string())
                                   compound  system  propertymeasured  observedmeasurement
0  Nc1ccc(C23CC4CC(C2)CC(c2ccc(N)cc2)(C4)C3)cc1 [1,3-DPANH2, 1,3-bis(4-aminophenyl)adamantane]    EKVX              IC50                 36.6
1  Nc1ccc(Oc2ccc(C34CC5CC(C3)CC(c3ccc(Oc6ccc(N)cc6)cc3)(C5)C4)cc2)cc1 [1,3-DPAONH2]    EKVX              IC50                 15.6
2  Nc1ccc(Oc2ccc(C3(c4ccc(Oc5ccc(N)c(O)c5)cc4)C4CC5CC(C4)CC3C5)cc2)cc1O [DPA]    EKVX              IC50                 2.63
3  Nc1ccc(C2(c3ccc(N)cc3)C3CC4CC(C3)CC2C4)cc1 [2,2-DPANH2, 2,2-bis(4-aminophenyl)adamantane]    EKVX              IC50                 16.4
4  Nc1ccc(Oc2ccc(C3(c4ccc(Oc5ccc(N)cc5)cc4)C4CC5CC(C4)CC3C5)cc2)cc1 [2,2-DPAONH2]    EKVX              IC50                 4.76

The reported IC50 of the compound Nc1ccc(Oc2ccc(C34CC5CC(C3)CC(c3ccc(Oc6ccc(N)c(O)c6)cc3)(C5)C4)cc2)cc1O [1,3-DPA/OH/NH2] was 1.68

Form: compound = Nc1ccc(Oc2ccc(C34CC5CC(C3)CC(c3ccc(Oc6ccc(N)cc6C(F)(F)F)cc3)(C5)C4)cc2)c(C(F)(F)F)c1 [1,3-DPA/CF3/NH2] ; IC50 = 15.4
